Listed next: entries and their corresponding Ki.
# target-of-assay: D2 (Rattus norvegicus, UniProt P61169)
# Sequence (P61169 whole entry): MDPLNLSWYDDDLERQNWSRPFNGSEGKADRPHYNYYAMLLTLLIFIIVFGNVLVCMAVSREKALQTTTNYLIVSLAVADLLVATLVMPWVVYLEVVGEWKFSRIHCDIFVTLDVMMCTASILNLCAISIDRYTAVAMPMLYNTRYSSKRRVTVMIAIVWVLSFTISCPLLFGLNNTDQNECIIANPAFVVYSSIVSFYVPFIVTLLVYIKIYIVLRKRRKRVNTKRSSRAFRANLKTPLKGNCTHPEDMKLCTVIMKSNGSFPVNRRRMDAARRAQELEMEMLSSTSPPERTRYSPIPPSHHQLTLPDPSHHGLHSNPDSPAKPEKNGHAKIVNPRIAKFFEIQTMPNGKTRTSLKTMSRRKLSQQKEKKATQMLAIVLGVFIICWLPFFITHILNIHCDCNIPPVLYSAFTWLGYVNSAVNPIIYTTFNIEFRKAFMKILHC
# method-description: Competition binding, cloned mammalian D2 receptors expressed in CHO-K1 cells, [3H]-5-(dipropylamino)-5,6-dihydro-4H-imidazo(4,5,1-ij)quinolin-2(1H)-one (R-enantiomer)
# settings: radioligand 2 nM, IC50 from one-site fit, Ki by Chen-Prushoff equation
quantity-kind: Ki

molecule="CCCN(CCC)C1Cc2ccc(OS(=O)(=O)c3ccc(C)cc3)cc2C1 (stereo not shown)" result="0.108 µM"
molecule="CCCN(CCC)C1Cc2ccc(OS(=O)(=O)C(F)(F)F)cc2C1 (stereo not shown)" result="0.35 µM"
molecule="CCCN(CCC)C1Cc2cc(O)c(C(=O)OC)cc2C1 (stereo not shown)" result="0.121 µM"
molecule=CCCN(CCC)C1Cc2cc(OS(=O)(=O)c3ccc(C)cc3)c(OS(=O)(=O)c3ccc(C)cc3)cc2C1 result="0.291 µM"

###

# target-of-assay: D3 (Rattus norvegicus, UniProt P19020)
# Construct: expressed in transfected cells; host or cells: CHO-K1
# Sequence (P19020 whole entry): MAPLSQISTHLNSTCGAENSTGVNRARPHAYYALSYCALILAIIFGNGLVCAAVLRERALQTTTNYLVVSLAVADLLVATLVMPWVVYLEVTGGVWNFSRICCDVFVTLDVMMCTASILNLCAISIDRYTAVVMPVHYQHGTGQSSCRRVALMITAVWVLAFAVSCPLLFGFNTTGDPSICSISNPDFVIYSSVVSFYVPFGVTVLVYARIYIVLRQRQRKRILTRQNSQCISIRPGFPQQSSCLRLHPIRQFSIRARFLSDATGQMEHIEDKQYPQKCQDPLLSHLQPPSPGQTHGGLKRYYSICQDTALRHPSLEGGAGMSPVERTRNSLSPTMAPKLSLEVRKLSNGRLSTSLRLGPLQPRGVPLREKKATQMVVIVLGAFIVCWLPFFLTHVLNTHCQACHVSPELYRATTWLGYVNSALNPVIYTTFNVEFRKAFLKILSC
# method-description: Competition binding, cloned mammalian D3 receptors expressed in CHO-K1 cells, [3H]-spiperone
# settings: cloned mammalian receptors in CHO-K1 cells; [3H]-spiperone 0.5 nM; IC50 from one-site fit, Ki by Chen-Prushoff equation; read-out: D3 (ki)
Listed next: entries and their corresponding Ki.
quantity-kind: Ki (nM)

compound=CCCN(CCC)C1Cc2cc(OS(=O)(=O)c3ccc(C)cc3)c(OS(=O)(=O)c3ccc(C)cc3)cc2C1 measurement_unit=nM numeric_value=45
compound="CCCN(CCC)C1Cc2ccc(OS(=O)(=O)c3ccc(C)cc3)cc2C1 (centres unmarked)" measurement_unit=nM numeric_value=3.7
